Origin of values: patent US6479435B1

Reported ECHCG phytotoxicity rating (0-100) by item:
# Tested on: barnyardgrass (Echinochloa crusgalli, ECHCG)
# experimentDescription: Post-emerge greenhouse herbicide test, phytotoxicity rating
# Format: in vivo
# conditionsUsed: 500 g al/ha, 14 days after application
The answer should be a number; do not append a unit.

Example compounds with recorded ECHCG phytotoxicity rating (0-100):
O=c1n(CCCF)nnn1-c1cc(Oc2ncccc2[N+](=O)[O-])c(Cl)cc1F [Compound 6-2]; 30
CCN1CC(=O)N(c2cc(Oc3ncccc3C(F)(F)F)c(Cl)cc2F)C1=O [Compound 8-1]; 0
CCN1CC(=O)N(c2cc(Oc3ncccn3)c(Cl)cc2F)C1=O [Compound 8-2]; 50
N#Cc1cccnc1Oc1cc(-n2nnn(CCCF)c2=O)c(F)cc1Cl [Compound 6-4]; 60

Consider the additional compound presented here.
Challenge: Using the record for COc1nc(OC)nc(Oc2cc(-c3nc(C)n(C(F)F)c3Cl)c(F)cc2Cl)n1 [Compound 2-4] , report its ECHCG phytotoxicity rating (0-100).
Response given: 0

====

# Test system: soybean (Glycine max L., var. Pella 86, SOY)
# experimentDescription: Post-emerge greenhouse test, crop damage rating
# Format: in vivo
# conditionsUsed: 500 g al/ha, 14 days after application
metricName: SOY crop damage rating (0-100)
I only need the number, thanks.

Use these answered entries as a reference point.
CCN1CC(=O)N(c2cc(Oc3ncccc3C(F)(F)F)c(Cl)cc2F)C1=O; 50
Cc1nn(-c2cc(Oc3ncccn3)c(Cl)cc2F)c(=O)n1C(F)F; 100
Cn1nc(-c2cc(Oc3ncccn3)c(Cl)cc2F)c(Cl)c1C(F)(F)F; 100

Challenge: Please report the recorded SOY crop damage rating (0-100) for "N#Cc1cc([N+](=O)[O-])ccc1Oc1cc(-n2c(=O)n3n(c2=S)CCCC3)c(F)cc1Cl" .
Response given: 60

Challenge: SOY crop damage rating (0-100) for "COc1cc(OC)nc(Oc2cc(-n3nnn(CCCF)c3=O)c(F)cc2Cl)n1" ?
Response given: 40

Challenge: Look at this compound and give its reported SOY crop damage rating (0-100). "Nc1ccc(Oc2cc(-n3c(=O)n4n(c3=S)CCCC4)c(F)cc2Cl)c(C(F)(F)F)c1"
Response given: 50

Challenge: Can you look up the measured SOY crop damage rating (0-100) of "O=c1n(-c2cc(Oc3ccccc3)c(Cl)cc2F)c(=S)n2n1CCCC2" for me?
Response given: 85

Challenge: Find the recorded SOY crop damage rating (0-100) belonging to "CN1CC(=O)N(c2cc(Oc3ncccn3)c(Cl)cc2F)C1=O" and report it.
Response given: 50

====

pest or weed control at 125 g/ha for assorted compounds
# System: large crabgrass (Digitaria sanguinalis, DIGSA)
# experimentDescription: Pre-emerge greenhouse herbicide test, phytotoxicity rating
# Type: in vivo
# conditionsUsed: Digitaria sanguinalis, pre-emergence, 336 h, Rate 125 g al/ha, 14 days after application, rating scale 0-100
# Experimental: A standard greenhouse herbicide activity screening system was used to evaluate the herbicidal efficacy and crop safety of these test compounds. […] At 14 days after application of the test materials, phytotoxicity ratings were recorded. […]
Report the figure in % without appending any unit label.

The examples below pair each entry with its known result.
Nn1c(C(F)(F)F)cc(=O)n(-c2cc(Oc3ccc([N+](=O)[O-])cc3C(F)(F)F)c(Cl)cc2F)c1=O; 80
Nn1c(C(F)(F)F)cc(=O)n(-c2cc(Oc3nc(F)c(F)cc3F)c(Cl)cc2F)c1=O; 100
Nn1c(C(F)(F)F)cc(=O)n(-c2cc(Oc3ccccc3)c(Cl)cc2F)c1=O; 100
Nn1c(C(F)(F)F)cc(=O)n(-c2cc(Oc3ncccn3)c(Cl)cc2F)c1=O; 100
Nn1c(C(F)(F)F)cc(=O)n(-c2cc(Oc3ccc(Cl)cn3)c(Cl)cc2F)c1=O; 95
N#Cc1cccnc1Oc1cc(-n2c(=O)cc(C(F)(F)F)n(N)c2=O)c(F)cc1Cl; 100

Lab note: next compound to report on.
Challenge: Which value of pest or weed control at 125 g/ha has been reported for "N#Cc1ccc(Oc2cc(-n3c(=O)cc(C(F)(F)F)n(N)c3=O)c(F)cc2Cl)nc1" in the records?
Response given: 90
